The measured values listed here are drawn from the supplement of paper PMC3334620.

# SYSTEM NAME: Ylr278c (UniProt Q05854)
# Sequence (Q05854 whole entry): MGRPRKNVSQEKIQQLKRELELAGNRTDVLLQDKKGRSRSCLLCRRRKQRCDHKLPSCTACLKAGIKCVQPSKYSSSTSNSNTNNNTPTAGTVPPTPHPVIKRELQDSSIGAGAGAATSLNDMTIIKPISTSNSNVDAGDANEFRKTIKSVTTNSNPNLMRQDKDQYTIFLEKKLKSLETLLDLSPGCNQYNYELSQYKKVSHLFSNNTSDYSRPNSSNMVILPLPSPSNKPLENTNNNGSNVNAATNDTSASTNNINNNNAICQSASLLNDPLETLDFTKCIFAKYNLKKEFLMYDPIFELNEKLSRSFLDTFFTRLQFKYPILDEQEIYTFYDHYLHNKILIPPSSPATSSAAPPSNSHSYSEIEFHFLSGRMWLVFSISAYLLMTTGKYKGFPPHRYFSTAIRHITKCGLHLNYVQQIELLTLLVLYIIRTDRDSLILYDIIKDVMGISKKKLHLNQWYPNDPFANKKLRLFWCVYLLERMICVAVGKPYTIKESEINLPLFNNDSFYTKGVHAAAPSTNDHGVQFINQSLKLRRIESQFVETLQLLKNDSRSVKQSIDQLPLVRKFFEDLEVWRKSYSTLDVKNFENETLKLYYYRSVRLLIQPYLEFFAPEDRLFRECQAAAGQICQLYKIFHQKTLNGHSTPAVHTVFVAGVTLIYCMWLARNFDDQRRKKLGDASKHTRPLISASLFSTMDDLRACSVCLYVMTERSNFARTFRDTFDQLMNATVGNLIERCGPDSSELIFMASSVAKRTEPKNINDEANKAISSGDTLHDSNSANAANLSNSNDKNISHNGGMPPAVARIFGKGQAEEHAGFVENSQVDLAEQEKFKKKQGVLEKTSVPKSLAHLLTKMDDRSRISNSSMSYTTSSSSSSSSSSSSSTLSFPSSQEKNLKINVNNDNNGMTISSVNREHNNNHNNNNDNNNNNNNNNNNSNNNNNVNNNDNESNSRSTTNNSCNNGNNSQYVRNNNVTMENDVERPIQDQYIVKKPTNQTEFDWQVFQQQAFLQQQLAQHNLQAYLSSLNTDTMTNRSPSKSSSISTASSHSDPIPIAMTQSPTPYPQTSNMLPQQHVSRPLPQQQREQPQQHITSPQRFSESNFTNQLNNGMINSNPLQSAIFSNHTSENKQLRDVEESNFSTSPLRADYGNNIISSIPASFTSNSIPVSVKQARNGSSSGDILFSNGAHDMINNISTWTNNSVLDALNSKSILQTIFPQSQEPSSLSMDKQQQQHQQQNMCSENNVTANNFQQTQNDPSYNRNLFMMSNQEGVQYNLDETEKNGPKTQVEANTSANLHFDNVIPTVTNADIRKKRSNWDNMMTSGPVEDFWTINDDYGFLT
# TEST: PBM E-score (8-mer binding enrichment) (E-score (-0.5 to 0.5)); higher = stronger / more preferred TF binding
# MEASUREMENT CONDITIONS: protein concentration: 200 nM; construct: GST-DNA-binding domain
Whole data set: some 33,000 sequences, median “E-score (-0.5 to 0.5)” near -0.054, cut for the highest 2% near 0.39. Only a selection was taken, and the highest values are over-represented in it overall.
Mark Satisfied for reported PBM E-score of -0.02 or greater; mark Not satisfied for anything smaller.

TCGCGGAA Satisfied
CCTGATCG Not satisfied
AAGGAGAC Not satisfied
ACGCGGAC Satisfied
GCAGTCGA Not satisfied

Confirm if PBM E-score reported for the sequence CCGCGGAA is -0.02 or above. Satisfied
